Target: T1, hRAGE-Fc (human, UniProt Q15109 23-342, biotin label in the selections and HTRF assays)
T1 construct: extracellular domain; also called biotin labeled hRAGE-Fc; Biotin-labeled RAGE-Fc; not shown: Fc part
T1 sequence (Q15109 23-342): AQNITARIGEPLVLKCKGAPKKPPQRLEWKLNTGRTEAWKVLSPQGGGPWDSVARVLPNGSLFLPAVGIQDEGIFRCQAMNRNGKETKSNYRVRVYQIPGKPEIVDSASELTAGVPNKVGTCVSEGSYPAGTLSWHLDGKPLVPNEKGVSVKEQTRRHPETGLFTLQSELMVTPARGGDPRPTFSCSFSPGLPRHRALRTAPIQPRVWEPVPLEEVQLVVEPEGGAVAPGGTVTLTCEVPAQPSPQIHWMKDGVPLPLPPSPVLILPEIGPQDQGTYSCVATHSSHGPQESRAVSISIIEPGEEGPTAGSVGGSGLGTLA
Experiment: IC50 of parental M4 scFv-Fc over IC50 of clone, HTRF competition
parameter: Fold gain scFv-Fc (hRAGE) (fold)

binder="6C3 scFv-Fc fusion (Fc fusion, not shown: wild-type human IgG Fc (hinge and constant domains)) DIQMTQSPSSLSASVGDRVTITCRASQDVGIYVNWFQQKPGKAPRRLIYRATNLADGVPSRFSGSRSGTDFTLTISSLQPEDFATYYCLEFDEHPLTFGGGTKVEIKDGGGSGGGGSGGGGSSEVQLVESGGGLVQPGGSLRLSCAASGFTFNNYWMTWVRQAPGKGLEWVASIDNSGDNTYYPDSVKDRFTISRDNAKNSLYLQMNSLRAEDTAVYYCARGGDITLGLDVWGQGTLVTVSS" recordedmeasurement=38.6
binder="6B6 scFv-Fc fusion (Fc fusion, Substitutions derived from the printed HCDR3; not shown: wild-type human IgG Fc (hinge and constant domains)) DIQMTQSPSSLSASVGDRVTITCRASQDVGIYVNWFQQKPGKAPRRLIYRATNLADGVPSRFSGSRSGTDFTLTISSLQPEDFATYYCLEFDEHPLTFGGGTKVEIKDGGGSGGGGSGGGGSSEVQLVESGGGLVQPGGSLRLSCAASGFTFNNYWMTWVRQAPGKGLEWVASIDNSGDNTYYPDSVKDRFTISRDNAKNSLYLQMNSLRAEDTAVYYCARGGDIIISLDWWGQGTLVTVSS" recordedmeasurement=7.6
binder="3G5 scFv-Fc fusion (Fc fusion, Substitutions derived from the printed HCDR3; not shown: wild-type human IgG Fc (hinge and constant domains)) DIQMTQSPSSLSASVGDRVTITCRASQDVGIYVNWFQQKPGKAPRRLIYRATNLADGVPSRFSGSRSGTDFTLTISSLQPEDFATYYCLEFDEHPLTFGGGTKVEIKDGGGSGGGGSGGGGSSEVQLVESGGGLVQPGGSLRLSCAASGFTFNNYWMTWVRQAPGKGLEWVASIDNSGDNTYYPDSVKDRFTISRDNAKNSLYLQMNSLRAEDTAVYYCARGGDILDSLPYWGQGTLVTVSS" recordedmeasurement=62.7
binder="3A6 scFv-Fc fusion (Fc fusion, not shown: wild-type human IgG Fc (hinge and constant domains)) DIQMTQSPSSLSASVGDRVTITCRASQDVGIYVNWFQQKPGKAPRRLIYRATNLADGVPSRFSGSRSGTDFTLTISSLQPEDFATYYCLEFDEHPLTFGGGTKVEIKDGGGSGGGGSGGGGSSEVQLVESGGGLVQPGGSLRLSCAASGFTFNNYWMTWVRQAPGKGLEWVASIDNSGDNTYYPDSVKDRFTISRDNAKNSLYLQMNSLRAEDTAVYYCARGGDILVSLDVWGQGTLVTVSS" recordedmeasurement=9.9
binder="3B2 scFv-Fc fusion (Fc fusion, not shown: wild-type human IgG Fc (hinge and constant domains)) DIQMTQSPSSLSASVGDRVTITCRASQDVGIYVNWFQQKPGKAPRRLIYRATNLADGVPSRFSGSRSGTDFTLTISSLQPEDFATYYCLEFDEHPLTFGGGTKVEIKDGGGSGGGGSGGGGSSEVQLVESGGGLVQPGGSLRLSCAASGFTFNNYWMTWVRQAPGKGLEWVASIDNSGDNTYYPDSVKDRFTISRDNAKNSLYLQMNSLRAEDTAVYYCARGGDILVGLDYWGQGTLVTVSS" recordedmeasurement=34.2
binder="10D8 scFv-Fc fusion (Fc fusion, also called 10D8 (b); not shown: wild-type human IgG Fc (hinge and constant domains)) DIQMTQSPSSLSASVGDKVTITCRASQDVGFYVNWFQQKPGKAPRRLIYRATNLADGVPSRFSGSRSGTDFTLTISSLQPEDFATYYCLEFDEHPLTFGGGTKVEIKDGGGSGNGGSGGGGSSEVQLVESGGELVQPGGSLRLSCAASGFTFNNYWMTWVRQAPGKGLEWVASIDNSGDNTYYPDSVKDRFTISRDNAKNSLYLQMNSLRAEDTAVYYCARGGDITTGFDYWGQGTLVTVSS" recordedmeasurement=8.8
binder="1G6 scFv-Fc fusion (Fc fusion, not shown: wild-type human IgG Fc (hinge and constant domains)) DIQMTQSPSSLSASVGDRVTITCRASQDVGFYVNWFQQKPGKAPRRLIYRATNLADGVPSRFSGSRSGTDFTLTISSLQPEDFATYYCLEFDEHPLTFGGGTKVEIKDGGGSGGGGSGGGGSSEVQLVESGGGLVQPGGSLRLSCAASGFTFNNYWMTWVRQAPGKGLEWVASIDNSGDNTYYPDSVKDRFTISRDNAKNSLYLQMNSLRAEDTAVYYCARGGDITNGFDYWGQGTLVTVSS" recordedmeasurement=6.4
binder="5A3 scFv-Fc fusion (Fc fusion, not shown: wild-type human IgG Fc (hinge and constant domains)) DIQMTQSPSSLSASVGDIVTITCRASQDVGIYVNWFQQKPGKAPRRLIYRATNLADGVPSRFSGSRSSTDFTLTISSLQPEDFATYYCLEFDEHPLTFGGGTKVEIKDGGGSGGGGSGGGGSSEVQLVESGGGLVQPGGSLRLSCAASGFTFNNYWMTWVRQAPGKGLEWVASIDNSGDNTYYPDSVKDRFTISRDNAKNSLYLKMNSLRAEDTAVYYCTRGGDITTGLDYWGQGTLVTVSS" recordedmeasurement=12.2
binder="8G9 scFv-Fc fusion (Fc fusion, not shown: wild-type human IgG Fc (hinge and constant domains)) DIQMTQSPSSLSASVGDRVTITCRASQDVGIYVNWFQQKPGKAPRRLIYRATNLADGVPSRFSGSRSGTDFTLTISSLQPEDFATYYCLEFDEHPLTFGGGTKVEIKDGGGSGGGGSGGGGSSEVQLVESGGGLVQPGSSLRLSCAASGFTFNNYWMTWVRQAPGKGLEWVASIDNSGDNTYYPDSVKDRFTISRDNAKNSLYLQMNSLRAEDTAVYYCARGGDITTGLDYWGQGTLVTVSS" recordedmeasurement=5.1
binder="6B2 scFv-Fc fusion (Fc fusion, Substitutions derived from the printed HCDR3; not shown: wild-type human IgG Fc (hinge and constant domains)) DIQMTQSPSSLSASVGDRVTITCRASQDVGIYVNWFQQKPGKAPRRLIYRATNLADGVPSRFSGSRSGTDFTLTISSLQPEDFATYYCLEFDEHPLTFGGGTKVEIKDGGGSGGGGSGGGGSSEVQLVESGGGLVQPGGSLRLSCAASGFTFNNYWMTWVRQAPGKGLEWVASIDNSGDNTYYPDSVKDRFTISRDNAKNSLYLQMNSLRAEDTAVYYCARGGDIRVGLDVWGQGTLVTVSS" recordedmeasurement=8.2
